assayed-target: UniProt:O75164
Sequence (whole entry): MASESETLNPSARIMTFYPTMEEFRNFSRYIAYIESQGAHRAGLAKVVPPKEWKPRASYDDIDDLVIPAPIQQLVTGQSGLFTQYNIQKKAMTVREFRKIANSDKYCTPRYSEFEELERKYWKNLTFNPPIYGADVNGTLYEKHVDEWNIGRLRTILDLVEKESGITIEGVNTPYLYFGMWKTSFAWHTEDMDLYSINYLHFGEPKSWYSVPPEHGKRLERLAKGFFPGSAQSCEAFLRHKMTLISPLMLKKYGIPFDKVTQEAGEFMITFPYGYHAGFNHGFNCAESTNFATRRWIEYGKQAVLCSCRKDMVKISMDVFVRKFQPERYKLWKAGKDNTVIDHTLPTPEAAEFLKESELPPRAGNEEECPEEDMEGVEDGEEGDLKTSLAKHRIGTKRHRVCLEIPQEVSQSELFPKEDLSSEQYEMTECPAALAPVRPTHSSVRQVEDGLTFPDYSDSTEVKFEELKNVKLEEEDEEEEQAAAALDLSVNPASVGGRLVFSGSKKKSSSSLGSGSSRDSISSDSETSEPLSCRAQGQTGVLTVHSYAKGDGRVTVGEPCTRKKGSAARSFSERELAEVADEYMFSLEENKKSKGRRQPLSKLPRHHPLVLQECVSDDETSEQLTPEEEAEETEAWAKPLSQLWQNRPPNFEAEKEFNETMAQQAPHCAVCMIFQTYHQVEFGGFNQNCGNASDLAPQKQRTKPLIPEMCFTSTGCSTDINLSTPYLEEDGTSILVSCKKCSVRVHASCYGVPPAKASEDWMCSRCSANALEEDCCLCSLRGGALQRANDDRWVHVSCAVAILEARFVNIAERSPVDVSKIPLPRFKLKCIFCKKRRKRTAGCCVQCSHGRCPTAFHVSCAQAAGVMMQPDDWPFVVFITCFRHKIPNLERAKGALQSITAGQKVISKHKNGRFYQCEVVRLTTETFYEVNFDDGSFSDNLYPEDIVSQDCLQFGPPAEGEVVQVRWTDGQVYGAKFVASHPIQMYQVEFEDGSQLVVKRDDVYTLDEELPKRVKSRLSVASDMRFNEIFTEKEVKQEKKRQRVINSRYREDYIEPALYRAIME
assay-overview: Inhibition of JMJD2A-mediated H3K9 demethylation activity at 1 mM
Active and inactive are the calls of the source. The calls are words filed in the database; no cut-off is given here.
Labels: yes (1) = active, no (0) = inactive

* CN(C)c1ccc(CCCN(CC(=O)O)C(=O)C(=O)O)cc1 | no (0)
* CN(C)c1ccc(CN(CC(=O)O)C(=O)C(=O)O)cc1 | no (0)
* CN(C)c1ccc(CCN(CC(=O)O)C(=O)C(=O)O)cc1 | no (0)
* O=C(O)CNC(=O)C(=O)O | yes (1)
* CN(C)c1cccc(CN(CC(=O)O)C(=O)C(=O)O)c1 | no (0)

----------
assayed-target: Lysine-specific demethylase 4D (Homo sapiens) (UniProt Q6B0I6)
Sequence (Q6B0I6 whole entry): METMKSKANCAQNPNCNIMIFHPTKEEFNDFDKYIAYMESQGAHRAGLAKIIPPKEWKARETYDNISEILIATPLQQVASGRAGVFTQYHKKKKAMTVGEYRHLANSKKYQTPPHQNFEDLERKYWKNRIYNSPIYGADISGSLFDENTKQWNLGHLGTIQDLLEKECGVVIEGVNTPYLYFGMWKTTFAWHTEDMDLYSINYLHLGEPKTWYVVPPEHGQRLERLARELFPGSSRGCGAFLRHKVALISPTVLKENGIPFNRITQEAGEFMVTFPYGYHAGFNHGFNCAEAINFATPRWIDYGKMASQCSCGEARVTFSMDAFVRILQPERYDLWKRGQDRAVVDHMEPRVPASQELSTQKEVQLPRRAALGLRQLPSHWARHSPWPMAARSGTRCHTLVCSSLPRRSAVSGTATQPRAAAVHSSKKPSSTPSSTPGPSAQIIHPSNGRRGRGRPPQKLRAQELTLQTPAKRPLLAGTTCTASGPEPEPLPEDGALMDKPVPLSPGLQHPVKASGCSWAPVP
assay-overview: Inhibition of JMJD2D-mediated H3K9 demethylation activity at 1 mM
Active and inactive are the calls of the source. No cut-off for these calls is given here.
readout-label: Histone_modification

• CN(C)c1ccc(CCN(CC(=O)O)C(=O)C(=O)O)cc1 = Active
• CN(C)c1ccc(CCCN(CC(=O)O)C(=O)C(=O)O)cc1 = Active
• CN(C)c1ccc(CN(CC(=O)O)C(=O)C(=O)O)cc1 = Active
• O=C(O)CNC(=O)C(=O)O = Active

----------
assayed-target: Lysine-specific demethylase 4C (Homo sapiens) (UniProt Q9H3R0)
Sequence (Q9H3R0 whole entry): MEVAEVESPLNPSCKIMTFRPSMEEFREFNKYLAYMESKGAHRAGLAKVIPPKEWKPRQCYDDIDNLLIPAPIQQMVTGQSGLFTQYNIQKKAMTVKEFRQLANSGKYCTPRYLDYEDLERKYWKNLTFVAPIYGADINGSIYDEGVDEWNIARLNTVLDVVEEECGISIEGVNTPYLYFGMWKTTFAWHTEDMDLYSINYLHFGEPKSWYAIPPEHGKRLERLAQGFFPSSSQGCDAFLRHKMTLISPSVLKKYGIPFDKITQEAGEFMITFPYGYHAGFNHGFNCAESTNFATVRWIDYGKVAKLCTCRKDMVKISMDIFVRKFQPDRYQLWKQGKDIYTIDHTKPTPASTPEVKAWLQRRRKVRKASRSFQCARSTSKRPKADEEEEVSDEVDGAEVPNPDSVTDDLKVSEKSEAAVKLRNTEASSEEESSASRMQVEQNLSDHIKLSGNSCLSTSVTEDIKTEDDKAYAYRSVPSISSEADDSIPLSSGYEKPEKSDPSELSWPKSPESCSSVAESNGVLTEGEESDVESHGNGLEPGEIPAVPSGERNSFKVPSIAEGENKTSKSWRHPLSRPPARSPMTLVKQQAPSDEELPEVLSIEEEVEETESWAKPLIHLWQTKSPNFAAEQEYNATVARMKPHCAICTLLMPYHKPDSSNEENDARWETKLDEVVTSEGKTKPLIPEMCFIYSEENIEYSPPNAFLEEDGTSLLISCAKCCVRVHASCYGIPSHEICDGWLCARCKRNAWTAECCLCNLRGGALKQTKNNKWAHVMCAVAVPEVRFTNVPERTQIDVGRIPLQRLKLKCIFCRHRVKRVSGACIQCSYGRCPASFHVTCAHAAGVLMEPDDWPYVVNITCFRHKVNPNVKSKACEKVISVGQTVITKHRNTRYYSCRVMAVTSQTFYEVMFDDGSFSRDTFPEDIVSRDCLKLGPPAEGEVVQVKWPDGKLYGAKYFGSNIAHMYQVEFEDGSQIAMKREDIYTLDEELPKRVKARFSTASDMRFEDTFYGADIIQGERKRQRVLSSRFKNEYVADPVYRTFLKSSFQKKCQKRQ
assay-overview: Inhibition of JMJD2C-mediated H3K9 demethylation activity at 1 mM
Active and inactive are the calls of the source. The calls are words filed in the database; no cut-off is given here.
Labels: active, inactive

- CN(C)c1ccc(CCN(CC(=O)O)C(=O)C(=O)O)cc1: inactive
- O=C(O)CNC(=O)C(=O)O: active
- CN(C)c1ccc(CCCN(CC(=O)O)C(=O)C(=O)O)cc1: inactive
- CN(C)c1ccc(CN(CC(=O)O)C(=O)C(=O)O)cc1: inactive
- CN(C)c1cccc(CN(CC(=O)O)C(=O)C(=O)O)c1: inactive

Reference for the values: ChEMBL document CHEMBL1152903
